pKi: −log10 of the molar value.
From various publications: pKi for UniProtKB Q9JI35.
value.kind: pKi

O=C(CCc1ccc(Cl)cc1)N1CCC(Cc2cnc[nH]2)CC1 = 7.40

1 = Clc1ccc2c(c1)CCc1cccnc1C2CCNCCCc1c[nH]cn1 (stereo not drawn)
2 = Fc1ccc2c(c1)nc(-c1ccccn1)n2-c1ccc(OCCCN2CCCCC2)cc1
Please tell me which of the two, 1 or 2 , has the higher reported pKi value. Identify your pick by its label. 2

A = Clc1ccc2c(c1)CCc1cccnc1C2NCCCCCc1c[nH]cn1 (stereo not drawn)
B = CCCS(=O)(=O)N1CCC(N2CCC(C3(c4ccc(S(=O)(=O)c5ccc6c(c5)OCO6)cc4)OCCO3)CC2)CC1
Please tell me which of the two, A or B , has the higher reported pKi value. Identify your pick by its label. A
(A: 8.12, B: 6.85)

I = CN(CCc1c[nH]cn1)C(=O)CC(c1ccc(Cl)cc1)c1ccccn1 (stereo not drawn)
II = Cc1cc(C(=O)NCc2cccnc2NC2CCN(C(=O)C3CCN(Cc4ccnc(N)c4)CC3)CC2)no1
III = Clc1ccc2c(c1)CCc1cccnc1C2=C1CCN(Cc2c[nH]cn2)CC1
Rank items: key pKi, increasing. API: response body holds the labels in the requested order. III, I, II
(III: 6.18, I: 9.00, II: 9.70)

* * *

pKi: −log10 of the molar value.
From various publications: pKi for Histamine H3 receptor (Cavia porcellus, UniProt Q9JI35).
value.kind: pKi

Answered examples (5):
O=C(NCCCCc1c[nH]cn1)N1CCN(C2c3ccc(Cl)cc3CCc3cccnc32)CC1 (stereo not shown) = 7.33
O=C(CCN1CCC(Cc2cnc[nH]2)CC1)Nc1cc(Cl)cc(Cl)c1 = 9.15
O=C(NCC1CC1)c1ccc(CN2CCC(C3CCN(Cc4ccc(C(=O)NCC5CC5)cc4)CC3)CC2)cc1 = 6.30
Clc1ccc2c(c1)CCc1cccnc1C2=C1CCN(CCCCCCc2c[nH]cn2)CC1 = 7.47
Clc1ccc(C(CCN2CCN(Cc3c[nH]cn3)CC2)c2ccccn2)cc1 (stereo not shown) = 6.89

1 = O=C(CC(c1ccc(Cl)cc1)c1ccccn1)N1CCC(Cc2c[nH]cn2)CC1 (stereo not shown)
2 = O=C(Nc1cccc(Cl)c1)N1CCC(Cc2cnc[nH]2)CC1
Please tell me which of the two, 1 or 2 , has the higher reported pKi value. Identify your pick by its label. 1
(1: 9.52, 2: 7.70)

1 = Clc1ccc2c(c1)CCc1cccnc1C2N1CCN(Cc2c[nH]cn2)CC1 (single isomer, unassigned; (-))
2 = O=C(CCN1CCC(Cc2cnc[nH]2)CC1)Nc1ccc(I)cc1
Please tell me which of the two, 1 or 2 , has the higher reported pKi value. Identify your pick by its label. 2

* * *

From various publications: Ki for Histamine H3 receptor (Cavia porcellus).
value.kind: Ki (nM)

Answered examples (4):
Nc1cc(CN2CCC(C(=O)N3CCC(n4c(N5CCOCC5)nc5cc(F)ccc54)CC3)CC2)ccn1 = 0.3
Clc1ccc2c(c1)CCc1cccnc1C2=C1CCN(CCCCc2c[nH]cn2)CC1 = 25.2
C[N+](C)(CCCCc1c[nH]cn1)CCC(c1ccc(Cl)cc1)c1ccccn1 (stereo not drawn) = 160
Nc1ncc(CN2CCC(F)(C(=O)N3CCC(n4c(-c5ccc(F)cc5F)nc5cc(F)ccc54)CC3)CC2)cn1 = 13

a = CN(C)CCCOc1ccc(CN2CCC(N3CCC(C(=O)c4ccc(S(=O)(=O)c5ccc6c(c5)OCO6)cc4)CC3)CC2)cc1
b = N=C(CCCc1c[nH]cn1)NCCC(c1ccc(Cl)cc1)c1ccccn1 (stereo not drawn)
I'm curious whether a or b has the smaller Ki number. Which is it? Identify your pick by its label. a
(a: 15 nM, b: 29 nM)

1 = O=C(CCN1CCC(CCc2cnc[nH]2)C1)Nc1ccc(Cl)cc1 (stereo not drawn)
2 = Clc1ccc(C(c2ccccn2)N2CCN(Cc3c[nH]cn3)CC2)cc1 (stereo not drawn)
I'm curious whether 1 or 2 has the smaller Ki number. Which is it? Identify your pick by its label. 1

I = O=C(Nc1cccc(Cl)c1)N1CCC(CCc2cnc[nH]2)CC1
II = c1ccc(OCCCN2CCC(Cc3cnc[nH]3)CC2)cc1
I'm curious whether I or II has the smaller Ki number. Which is it? Identify your pick by its label. II

1 = O=C(Nc1ccc(Cl)cc1)N1CCC(Cc2cnc[nH]2)CC1
2 = O=C(CCN1CCC(CCc2cnc[nH]2)CC1)Nc1ccc(Cl)cc1
Please tell me which of the two, 1 or 2 , has the higher reported Ki value. Identify your pick by its label. 1
(1: 160 nM, 2: 11 nM)

* * *

From various publications: Ki for Histamine H3 receptor (Cavia porcellus).
value.kind: Ki (nM)

Answered examples (2):
O=C(CCCc1ccccc1)N1CCC(Cc2cnc[nH]2)CC1 = 8
O=C(C1CCN(Cc2ccncc2)CC1)N1CCC(n2c(=O)n(CCn3cccc3)c3ccccc32)CC1 = 0.2

P = Clc1ccc2c(c1)CCc1cccnc1C2NCCCCc1c[nH]cn1 (stereo not shown)
Q = Clc1ccc(C(CCN2CCN(CCCCc3c[nH]cn3)CC2)c2ccccn2)cc1 (stereo not shown)
R = CC(C)(C)OC(=O)N1CCC(C2CCN(Cc3ccc(S(=O)(=O)c4ccc5c(c4)OCO5)cc3)CC2)CC1
Sort the 3 molecules by Ki; largest first, smallest last. API: response body holds the labels in the requested order. R, P, Q
(R: 430 nM, P: 29 nM, Q: 7 nM)

* * *

pKi: −log10 of the molar value.
From various publications: pKi for Histamine H3 receptor (Cavia porcellus, UniProt Q9JI35).

O=C(C1CCN(Cc2ccncc2)CC1)N1CCN(Cc2ccccc2Br)CC1 = 7.46 to 9.70
CCON=C(c1ccccn1)C1CCN(C(=O)C2CCN(Cc3ccnc(N)c3)CC2)CC1 = 7.48 to 9.60
CO/N=C(\c1ccccn1)C1CCN(C(=O)C2CCN(Cc3ccnc(N)c3)CC2)CC1 = 7.80 to 9.08
CON=C(c1ccsc1)C1CCN(C(=O)C2CCN(Cc3ccnc(N)c3)CC2)CC1 = 7.48 to 9.60
CN(C)S(=O)(=O)N1CCN(C(=O)C2CCN(Cc3ccnc(N)c3)CC2)CC1 = 7.46 to 9.70

Turning now to a further molecule:
The molecule CO/N=C(\c1ccc(Cl)cc1)C1CCN(C(=O)C2CCN(Cc3ccnc(N)c3)CC2)CC1 , tested on Histamine H3 receptor (Cavia porcellus, UniProt Q9JI35), showed pKi of 7.48 to 9.60

* * *

From various publications: Ki for Histamine H3 receptor (Cavia porcellus, UniProt Q9JI35).
value.kind: Ki (nM)

1 = O=C(CC(=O)N1CCC(Cc2cnc[nH]2)CC1)Nc1cccc(Cl)c1
2 = CCN(CC)CCOc1ccc(CN2CCC(N3CCC(C(=O)c4ccc(S(=O)(=O)c5ccc6c(c5)OCO6)cc4)CC3)CC2)cc1
I'm curious whether 1 or 2 has the smaller Ki number. Which is it? Identify your pick by its label. 2
(2: 8 nM, 1: 50 nM)

1 = Clc1ccc2c(c1)CCc1cccnc1C2CCNCCCCCc1c[nH]cn1 (centres unmarked)
2 = Nc1cc(CN2CCC(C(=O)N3CCC(n4c(C5CC5)nc5cccnc54)CC3)CC2)ccn1
3 = CN(CCCCc1c[nH]cn1)CCC(c1ccc(Cl)cc1)c1ccccn1 (centres unmarked)
4 = Clc1ccc(C(CCNCCCCc2c[nH]cn2)c2ccccn2)cc1 (centres unmarked)
Rank items: key Ki, increasing. API: response body holds the labels in the requested order. 2, 1, 4, 3
(2: 0.5 nM, 1: 7 nM, 4: 10 nM, 3: 15 nM)

* * *

From various publications: Ki for Histamine H3 receptor (Cavia porcellus, UniProt Q9JI35).
value.kind: Ki (µM)

Answered examples (8):
c1ccc(CN2CCC(C3CCN(Cc4ccccc4)CC3)CC2)cc1 = 0.62
Clc1ccc2c(c1)CCc1cccnc1C2C1CCN(CCCCCc2c[nH]cn2)CC1 (centres unmarked) = 0.0225
Clc1ccc2c(c1)CCc1cccnc1C2CCN(CCCCc1c[nH]cn1)CCCCc1c[nH]cn1 (centres unmarked) = 0.009
O=C(NCC1CC1)c1ccc(CN2CCC(C3CCN(Cc4ccc(S(=O)(=O)c5ccc6c(c5)OCO6)cc4)CC3)CC2)cc1 = 0.29
Clc1ccc2c(c1)CCc1cccnc1C2N1CCN(CCCCCc2c[nH]cn2)CC1 (centres unmarked) = 0.032
Clc1ccc2c(c1)CCc1cccnc1C2NCCc1c[nH]cn1 (centres unmarked) = 0.07
CN(C)CCCOc1ccc(CN2CCC(N3CCC(C4(c5ccc(S(=O)(=O)c6ccc7c(c6)OCO7)cc5)OCCO4)CC3)CC2)cc1 = 0.012
FC(F)(F)c1ccc(NCCCN2CCC(CCc3cnc[nH]3)CC2)cc1 = 0.06

1 = CN(C)CCCOc1ccc(CN2CCC(C3CCN(Cc4ccc(S(=O)(=O)c5ccc6c(c5)OCO6)cc4)CC3)CC2)cc1
2 = CN(CCCc1c[nH]cn1)CCC(c1ccc(Cl)cc1)c1ccccn1 (centres unmarked)
I'm curious whether 1 or 2 has the smaller Ki number. Which is it? Identify your pick by its label. 1
